Ref: PubChem BioAssay (NCI)

Would you kindly list TGI for each of these molecules?
System: NCI-H23 lung
protocol-notes: NCI tumour cell line growth inhibition, 48 h

[[record]]
molecule = "Cc1cc2nc3c4cccc(O)c4n(CCN(C)C)c3nc2cc1C"
attribute_measured = "TGI"
result = "16 µM"

[[record]]
molecule = "COc1cc2c(cc1Cl)n([O-])c(C#N)c(N1CCN(c3ccc([N+](=O)[O-])cc3)CC1)[n+]2=O"
attribute_measured = "TGI"
result = "91.3 µM"

[[record]]
molecule = "CC1=CC2CC(C)C1(C)CCc1ccoc12 (stereo unspecified)"
attribute_measured = "TGI"
result = "> 100 µM"

[[record]]
molecule = "N#Cc1c(N2CCN(c3ccc([N+](=O)[O-])cc3)CC2)[n+](=O)c2ccc(Cl)cc2n1[O-]"
attribute_measured = "TGI"
result = "3.96 µM"

[[record]]
molecule = "O=C(O)c1ccc(C2C3C=CC(C3)C2[N+](=O)[O-])cc1 (stereo unspecified)"
attribute_measured = "TGI"
result = "> 100 µM"

[[record]]
molecule = "COc1ccc(-c2csc3c2-n2cccc2C3=O)cc1O"
attribute_measured = "TGI"
result = "> 42.4 µM"

[[record]]
molecule = "CN(C)CCNC(=O)c1nc([N+](=O)[O-])cn1C"
attribute_measured = "TGI"
result = "> 100 µM"

[[record]]
molecule = "Cc1n(CC(=O)c2ccccc2)nc2sc(N)n[n+]12"
attribute_measured = "TGI"
result = "> 100 µM"


Look at each molecule and report its TGI.
1. N=C(N)c1ccc(-c2ccc(-c3ccc(F)cc3)o2)o1
2. CC(=O)OCC1OC(c2nnc(C)o2)=CC(OC(C)=O)C1OC(C)=O (stereo unspecified)
3. O=C1O[C@]2(c3ccccc3)C(c3ccccc3)=C[C@]2(C(=O)c2ccccc2)C1=O

// result
4.88 µM
> 100 µM
> 100 µM

----------
Test system: NCI-H522 lung
protocol-notes: NCI tumour cell line growth inhibition, 48 h; in the data active = GI50 below about 0.43 µM; inactive = the rest
Your answer must be one of the following: 1 (yes) (active), 0 (no) (inactive)

[[record]]
compound_structure_string = "COc1cc2c3c(n(CCCNCCNCCCN)c(=O)c2cc1OC)-c1cc2c(cc1C3=O)OCO2"
target_under_test = "NCI-H522 lung"
category = "0 (no)"


// query Please share the test call associated with COc1ccc(-c2ccccc2)cc1-c1c(Nc2cc(Cl)cc(Cl)c2O)c(=O)c1=O .
// result 0 (no)

// query Please share the test call associated with COc1ccc(-c2csc3c2-n2cccc2C3=O)cc1O .
// result 1 (yes)

// query Please share the test call associated with COc1cc(-c2n/c(=C\c3c(O)[nH]c4ccccc34)cc3c2=Nc2ccccc2-3)cc(OC)c1OC .
// result 1 (yes)

// query Please share the test call associated with Cc1ccc(F)cc1NC(=O)c1cc(Cl)ccc1Nc1ccccc1 .
// result 0 (no)

// query Please share the test call associated with O=C1C=CC(=O)c2c1ncc1c2nc2sccn21 .
// result 0 (no)

----------
Tested on: OVCAR-4 ovarian
protocol-notes: NCI tumour cell line growth inhibition, 48 h
Would you kindly list TGI for each of these compounds?

Study these solved cases before continuing.
[[record]]
compound = "CCCCCCCCCCCCCCCCn1cc[n+](Cc2ccccc2)c1C"
target_under_test = "OVCAR-4 ovarian"
result = "4.55 µM"

[[record]]
compound = "CCN1CCC(CC(=O)Nc2n[nH]c3nc(-c4cccs4)c(Br)cc23)CC1"
target_under_test = "OVCAR-4 ovarian"
result = "> 25 µM"


Look at each compound and report its TGI.
1. CCOC(=O)C1=C(c2ccccc2)N(c2ccc(OC)cc2)[C@]2(C#N)C(O)=C(Cl)C(Cl)=C(O)[C@]12C#N
2. Nc1c(S(=O)(=O)O)cc(Nc2cccc(S(=O)(=O)/C=C/S(=O)(=O)O)c2)c2c1C(=O)c1ccccc1C2=O
3. COc1ccc2c(c1)CC[C@@H]1[C@@H]2CC[C@]2(C)C(=O)/C(=C/c3cc(OC)c(OC)c(OC)c3)C[C@@H]12
4. COc1ccccc1NC(=O)C1=C(C)NC(C)=C(C(=O)Nc2ccccc2OC)C1c1cccc2c1OCO2

// result
> 100 µM
> 100 µM
> 100 µM
> 100 µM

Look at each compound and report its TGI.
1. Cn1c(=O)oc2cc(C3CCC(=O)N3Cc3ccc(Cl)cc3)ccc21 (stereo not given)
2. COC(=O)n1c(CBr)c(Br)c2ccccc21
3. COc1ccccc1NC(=O)CC(=O)NNCC(=O)Nc1nnc(-c2ccccc2)o1
4. COc1cc2c(cc1OCCCN1CCN(c3cc(=O)oc4c(C)c(OC)ccc34)CC1)N=C[C@@H]1CCCN1C2=O

// result
1: > 100 µM; 2: 66.2 µM; 3: > 100 µM; 4: 10.1 µM

----------
Would you kindly list TGI for each of these molecules?
Test system: CCRF-CEM leukemia
protocol-notes: NCI tumour cell line growth inhibition, 48 h

[[record]]
molecule = "O=C(O)C1SCCS1"
target_under_test = "CCRF-CEM leukemia"
attribute_measured = "TGI"
result = "> 100 µM"


Look at each molecule and report its TGI.
1. Oc1cc(Cl)ccc1Cc1ccc(Cl)cc1O
2. COC(=O)C1=Cc2c(cc(OC)c(OC)c2OC)[C@H](c2ccc(OC)c(OC)c2OC)C1C(=O)OC (stereo partly drawn)
3. O=C(O)CCCNS(=O)(=O)c1ccc2ccccc2c1
4. COC(=O)[C@@H]1CCCN1C(=O)[C@H]1CCCN1C(=O)[C@@H](Cc1c[nH]c2ccccc12)NC(=S)Nc1cc(C(F)(F)F)cc(C(F)(F)F)c1

// result
> 100 µM
> 100 µM
> 100 µM
11.3 µM

Look at each molecule and report its TGI.
1. CCCCCCN1CCN(Cc2ccc(N(CC)CC)cc2)C(=O)C1=O
2. O=C(O)c1ccc(Nc2nc3ccccc3nc2C(=O)O)cc1
3. Cc1cc2c(cc1Br)C1(C)CCC(C)C1(C)O2 (stereo not drawn)
4. CC(=O)OC12CC(C)C3(O)C4C=C(C)C(=O)[C@@]4(O)CC(CO)=C[C@H]3C1C2(C)C (stereo partly drawn)
5. CCOC(=O)c1cnc2cc3cccccc3n2c1=O
6. CN1CCC(n2[nH]c(-c3ccccc3)c(Cc3ccccc3)c2=O)CC1
7. N#Cc1nc(/C=C/c2ccccc2)oc1N
8. CCOC12SC(=Nc3ccc(C)cc3)NN1C(=S)N(C)N=C2C (stereo not drawn)

// result
1: > 100 µM; 2: > 100 µM; 3: 56.1 µM; 4: > 1000 µM; 5: > 100 µM; 6: > 100 µM; 7: > 100 µM; 8: > 100 µM

Look at each molecule and report its TGI.
1. CCCCCCCCCCCCCCCCn1cc[n+](Cc2ccccc2)c1C
2. O=C(OCc1ccccc1)N1c2cc([N+](=O)[O-])ccc2C(=O)N2CCC[C@H]2C1O (stereo partly drawn)
3. C[C@H](CCC1=NCCN1)[C@H]1CC[C@H]2[C@@H]3CC[C@@H]4C[C@H](O)CC[C@]4(C)[C@H]3C[C@H](O)[C@]12C
4. O=c1[nH]c2ccccc2c2oc(-c3ccccc3)nc12
5. CCOC(=O)/C(=C\c1ccc(F)cc1)C(C)=O
6. O=C1CC/C(=C\COc2ccc3ccc(=O)oc3c2)O1
7. CNC(=O)OCc1[nH]ccc2c(C)c3nc4ccc(OC)cc4c3cc12
8. COc1ccc(-c2csc3c2-n2cccc2C3=O)cc1O

// result
2.48 µM
> 100 µM
30.4 µM
52.6 µM
> 100 µM
13.6 µM
13.6 µM
0.4 µM

Look at each molecule and report its TGI.
1. COc1ccc(C2(C3c4cc(OC)c(OC)cc4CCN3C)SCCCS2)cc1O (stereo not drawn)
2. CC(=O)NC1=C(NCc2ccc(Cl)cc2)C(=O)c2ccccc2C1=O

// result
1: > 100 µM; 2: 32.3 µM

----------
Tested on: T-47D breast
protocol-notes: NCI tumour cell line growth inhibition, 48 h
attribute-measured: TGI (µM)
One number for each entry, in µM.

[[record]]
molecule = "CCOC(=O)/C(=C\\c1ccc(F)cc1)C(C)=O"
recorded_number = 63.9

[[record]]
molecule = "CC[C@@]1(O)C(=O)OCc2c1cc1n(c2=O)Cc2cc3c(NC(=O)CN)cccc3nc2-1"
recorded_number = 0.744


Look at each molecule and report its TGI.
1. CNCCOC(=O)/C=C1/CCC2C(C(O)CC3C(C)(C(=O)OC)CCCC23C)C1C (stereo unspecified)
2. CC1(C)Cc2c(Br)c(Br)c(Br)c(OCC(O)CN3CCOCC3)c2O1 (stereo unspecified)
3. O=C(C#Cc1cn(C2CC(O)C(CO)O2)c(=O)[nH]c1=O)c1ccccc1 (stereo unspecified)

// result
1: 0.0762; 2: 27.3; 3: 36.7

----------
System: 786-0 renal
protocol-notes: NCI tumour cell line growth inhibition, 48 h
Would you kindly list TGI for each of these compounds?
Give bare numbers, in µM.

Look at each compound and report its TGI.
1. COc1cc2c(cc1OCCCN1CCN(c3cc(=O)oc4c(C)c(OC)ccc34)CC1)N=C[C@@H]1CCCN1C2=O
2. CCOC(=O)/C(=C\c1ccc(F)cc1)C(C)=O
3. O=c1[nH]c2ccccc2c2oc(-c3ccccc3)nc12
4. Cc1ccc(/C(=C/C=C(C#N)C#N)Sc2ccccn2)cc1
5. C[C@H](CCC1=NCCN1)[C@H]1CC[C@H]2[C@@H]3CC[C@@H]4C[C@H](O)CC[C@]4(C)[C@H]3C[C@H](O)[C@]12C
6. CC[C@@]1(O)C(=O)OCc2c1cc1n(c2=O)Cc2cc3c(NC(=O)CN)cccc3nc2-1
7. CC(C)C(C/C=C1\CC(CO)(COC(=O)CC(C(C)C)C(C)C)OC1=O)C(C)C (centres undefined)
8. OCCO[P+]1(OCCO)n2c3ccc2C(c2ccccc2)=C2C=CC(=N2)C(c2ccccc2)=c2ccc(n21)=C(c1ccccc1)C1=NC(=C3c2ccccc2)C=C1

// result
9.62
49.4
56.1
5.64
33
3
21.1
1.28

// query # value lookup — system 786-0 renal, readout TGI, item Oc1ccc(CN(Cc2ccc(C(F)(F)F)cc2)Cc2ccc(O)c3ncccc23)c2cccnc12
// result 5.21
